# target or system: CB1 cannabinoid receptor (Rattus norvegicus, UniProt P20272)
# Construct: membranes were prepared from rat forebrain membranes; from tissue; host or cells: rat forebrain
# Sequence (P20272 whole entry): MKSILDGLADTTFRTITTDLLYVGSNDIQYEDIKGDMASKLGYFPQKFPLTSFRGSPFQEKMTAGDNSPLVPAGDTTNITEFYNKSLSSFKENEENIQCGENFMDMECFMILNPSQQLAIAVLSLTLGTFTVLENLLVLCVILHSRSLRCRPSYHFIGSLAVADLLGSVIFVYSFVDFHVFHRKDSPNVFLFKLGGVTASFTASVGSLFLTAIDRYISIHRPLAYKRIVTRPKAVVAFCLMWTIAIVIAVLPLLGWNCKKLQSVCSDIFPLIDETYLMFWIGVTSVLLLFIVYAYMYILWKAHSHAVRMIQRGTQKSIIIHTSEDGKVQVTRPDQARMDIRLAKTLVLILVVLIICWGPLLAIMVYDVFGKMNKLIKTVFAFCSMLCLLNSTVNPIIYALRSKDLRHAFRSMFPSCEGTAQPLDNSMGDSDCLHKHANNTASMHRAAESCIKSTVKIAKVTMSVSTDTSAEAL
# assay info: CB1 receptor binding, [3H]CP-55,940 displacement
# run conditions: without PMSF (first value of cell); rat forebrain membranes; read-out: Ki CB1 (nM) (o/w PMSFQ)
quantity kind: Ki (nM)
Report the value in nM with no unit label.

Form field Ki, entry [N-]=[N+]=NCCCC/C=C\C/C=C\C/C=C\C/C=C\CCCC(=O)NC1=NCCS1 : 1300

Form field Ki, entry CCCCCN(C)C/C=C\C/C=C\C/C=C\C/C=C\CCCC(=O)NC1CC1 : 76.5

Form field Ki, entry N#CCCCCC/C=C\C/C=C\C/C=C\C/C=C\CCCC(=O)NC1CC1 : 32.9

Form field Ki, entry COc1cc(CNC(=O)CCC/C=C\C/C=C\C/C=C\C/C=C\CCCCN=[N+]=[N-])ccc1O : 165

====

Exercise: for every item that follows, state its recorded Ki.
# target or system: CB1 cannabinoid receptor (Rattus norvegicus, UniProt P20272)
# Construct: membranes were prepared from rat forebrain membranes; from tissue; host or cells: rat forebrain
# assay info: CB1 receptor binding, [3H]CP-55,940 displacement
# run conditions: with PMSF (second value of cell); rat forebrain membranes; read-out: Ki CB1 (nM) (o/w PMSFQ)
Report the value in nM with no unit label.

Form field Ki, entry O=C(CCC/C=C\C/C=C\C/C=C\C/C=C\CCCCN=C=S)NCC1CC1 : 34.2

Form field Ki, entry O=C(CCC/C=C\C/C=C\C/C=C\C/C=C\CCc1ccccc1)Nc1ccc(O)cc1 : 58.6

Form field Ki, entry COc1cc(CNC(=O)CCC/C=C\C/C=C\C/C=C\C/C=C\CCCCN=C=S)ccc1O : 136

Form field Ki, entry O=C(CCC/C=C\C/C=C\C/C=C\C/C=C\CCCCCCl)NC1CC1 : 0.17

Form field Ki, entry [N-]=[N+]=NCCCCC/C=C\C/C=C\C/C=C\C/C=C\CCCC(=O)NC1CC1 : 0.9

Form field Ki, entry [N-]=[N+]=NCCCCC/C=C\C/C=C\C/C=C\C/C=C\CCCC(=O)NC1=NCCS1 : 144

Form field Ki, entry CCCCCN(C)C/C=C\C/C=C\C/C=C\C/C=C\CCCCNC(=O)c1ccc(O)cc1 [Compound A27] : 1620

Form field Ki, entry O=C(CCC/C=C\C/C=C\C/C=C\C/C=C\CCCCCO)NC1CC1 : 3.9

====

# System: anandamide transporter
# assay info: [3H]Anandamide transporter competition assay
# Type: cell-based
# run conditions: human CCF-STG1 astrocytoma cells, 10 nM [3H]anandamide; read-out: IC50 AT inhibition
# Procedure: Human CCF-STG1 astrocytoma cells (American Type Culture collection) were grown in RPMI1640 culture medium containing 2 mM L-glutamine, 4.5 g/L glucose, 10 mM HEPES, and 1.0 mM sodium pyruvate, 10% FBS, cultures at 37° C. with 5% CO2. […] Radioactive material in Triton X-100 cell extracts was measured by liquid scintillation counting. […] Data are expressed as mean±SEM.
Exercise: for every item that follows, state its recorded IC50.
Report the value in µM with no unit label.

Observed IC50 on anandamide transporter, entry O=C(CCC/C=C\C/C=C\C/C=C\C/C=C\CCCCCBr)NC1CC1 , equals 6.7

Observed IC50 on anandamide transporter, entry CCCCCN(C)C/C=C\C/C=C\C/C=C\C/C=C\CCCCNC(=O)c1ccc(O)cc1 [Compound A26] , equals 5.4

Observed IC50 on anandamide transporter, entry [N-]=[N+]=NCCCCC/C=C\C/C=C\C/C=C\C/C=C\CCCC(=O)NC1CC1 , equals 2.9

Observed IC50 on anandamide transporter, entry CCCCCN(C)C/C=C\C/C=C\C/C=C\C/C=C\CCCCNC(=O)c1ccc(O)cc1 [Compound A27] , equals 7.1

Observed IC50 on anandamide transporter, entry O=C(CCC/C=C\C/C=C\C/C=C\C/C=C\CCCCCCl)NC1CC1 , equals 4.1

Observed IC50 on anandamide transporter, entry [N-]=[N+]=NCCCC/C=C\C/C=C\C/C=C\C/C=C\CCCC(=O)NC1=NCCS1 , equals 2.3

Observed IC50 on anandamide transporter, entry O=C(CCC/C=C\C/C=C\C/C=C\C/C=C\CCCCCO)NC1CC1 , equals 35.3

Observed IC50 on anandamide transporter, entry [N-]=[N+]=NCCCCC/C=C\C/C=C\C/C=C\C/C=C\CCCC(=O)Nc1ccc(O)cc1 , equals 0.7

Observed IC50 on anandamide transporter, entry N#CCCCCC/C=C\C/C=C\C/C=C\C/C=C\CCCC(=O)NC1CC1 , equals 23.5

Observed IC50 on anandamide transporter, entry O=C(CCC/C=C\C/C=C\C/C=C\C/C=C\CCc1ccccc1)Nc1ccc(O)cc1 , equals 9.1

Observed IC50 on anandamide transporter, entry [N-]=[N+]=NCCCCC/C=C\C/C=C\C/C=C\C/C=C\CCCC(=O)NC1=NCCS1 , equals 1.2
